For each of the compounds below, state its concentration at 1 h.
# protocol: Mean serum concentration in neonatal piglets after intramuscular or oral administration
# Format: in vivo
# run conditions: pig, po, 50 mg/kg, 60'
# Procedure: e) Mean serum concentration in neonatal piglets of Examples 4 and 5 after intramuscular or oral administration at 50 mg/kg Blood levels were assessed in neonatal piglets (2 to 4 animals per group and man bodyweights about 2 kg). The dose was 50 mg/kg (dose solution = 25 mg/ml in 25% ethanol). Doses were given by intramuscular injection and orally by stomach tube. Piglets were bled at intervals up to 8 and at 24 hours, and serum assayed microbiologically (B. subtilis ATCC 6633).

Find the recorded concentration at 1 h belonging to CC(=CC(=O)OCCCC(=O)c1ccccc1)CC1OCC(CC2OC2C(C)C(C)O)C(O)C1O (centres unmarked) [Example 5, 4-Phenylbutan-4-onyl monate A] and report it.
860 ng/mL

Entry CC(=CC(=O)OCCCC(=O)c1cccs1)CC1OCC(CC2OC2C(C)C(C)O)C(O)C1O (centres unmarked) [Example 4, 4(1-Thienyl-2-ylbutan-1-onyl) monate A] has what concentration at 1 h?
5700 ng/mL

----------
# System: Staph aureus 152 (pen sens)
# protocol: MIC, veterinary bacteria
# Format: cell-based
# run conditions: Staphylococcus aureus, veterinary bacteria (Table 2), read-out: MIC
I'd be grateful if you could share measured MIC for these entries.
Report only the number, with the unit µg/mL understood.

Requested read-out: MIC. Entry: CC(=O)Nc1ccc(C(=O)CCCOC(=O)C=C(C)CC2OCC(CC3OC3C(C)C(C)O)C(O)C2O)cc1 (stereo not drawn) [Example 9]
0.625

What does the record list as MIC for CC(=O)CCCOC(=O)C=C(C)CC1OCC(CC2OC2C(C)C(C)O)C(O)C1O (stereo not drawn) [Example 2, 3-Acetvlpropvl Monate A] ?
1.25

Would you kindly share the measured MIC for CC(=O)COC(=O)C=C(C)CC1OCC(CC2OC2C(C)C(C)O)C(O)C1O (stereo not drawn) [Example 1, Acetvlmethvl Monate A] ?
2.5

Give the measured MIC of CC(=CC(=O)OCCCC(=O)c1ccccc1)CC1OCC(CC2OC2C(C)C(C)O)C(O)C1O (stereo not drawn) [Example 5, 4-Phenylbutan-4-onyl monate A] .
0.156

Need MIC of CC(=CC(=O)OCCCC(=O)c1cccs1)CC1OCC(CC2OC2C(C)C(C)O)C(O)C1O (stereo not drawn) [Example 4, 4(1-Thienyl-2-ylbutan-1-onyl) monate A] , thanks.
0.156

GET /values?readout=MIC&item= CC(=CC(=O)OC1CCCC(=O)CCC1)CC1OCC(CC2OC2C(C)C(C)O)C(O)C1O (stereo not drawn) [Example 10, Cyclooctan-5-onyl monate A]
2.5

----------
# protocol: Mean serum concentration in neonatal piglets after intramuscular or oral administration
# Assay type: in vivo
# run conditions: pig, im, 50 mg/kg, 4h
endpoint: concentration at 4 h

Which concentration at 4 h value belongs to CC(=CC(=O)OCCCC(=O)c1cccs1)CC1OCC(CC2OC2C(C)C(C)O)C(O)C1O (centres unmarked) [Example 4, 4(1-Thienyl-2-ylbutan-1-onyl) monate A] ?
1600 ng/mL

So what's the measured concentration at 4 h for this one? CC(=CC(=O)OCCCC(=O)c1ccccc1)CC1OCC(CC2OC2C(C)C(C)O)C(O)C1O (centres unmarked) [Example 5, 4-Phenylbutan-4-onyl monate A]
330 ng/mL
